test.system: Cholesteryl ester transfer protein (Homo sapiens)
Sequence (P11597 whole entry): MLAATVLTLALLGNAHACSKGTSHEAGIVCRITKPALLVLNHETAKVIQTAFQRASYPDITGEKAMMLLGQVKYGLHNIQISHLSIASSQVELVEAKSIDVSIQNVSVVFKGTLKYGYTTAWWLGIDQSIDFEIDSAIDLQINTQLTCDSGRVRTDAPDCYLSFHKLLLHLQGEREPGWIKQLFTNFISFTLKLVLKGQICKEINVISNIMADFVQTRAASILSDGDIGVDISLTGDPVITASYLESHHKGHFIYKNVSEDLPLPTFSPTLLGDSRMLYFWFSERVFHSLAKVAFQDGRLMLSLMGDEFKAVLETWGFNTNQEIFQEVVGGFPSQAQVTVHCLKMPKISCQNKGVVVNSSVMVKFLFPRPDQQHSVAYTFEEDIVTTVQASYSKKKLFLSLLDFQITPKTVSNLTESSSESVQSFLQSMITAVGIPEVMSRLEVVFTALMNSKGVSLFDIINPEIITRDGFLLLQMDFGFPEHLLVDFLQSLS
assay.summary: Compound was evaluated for inhibitory activity against cholesteryl ester transfer protein, reported from sponge
assay.readout: pIC50
Answers are plain numbers, as −log10 of the molar value.

Query: Look up pIC50: CCCCC(C)C1CC(=O)N[C@@H](Cc2ccccc2)C(=O)N[C@@H](C)C(=O)N[C@@H](CC(C)C)C(=O)O1 (stereo partly specified)
Response: 6.52

----------
test.system: UniProtKB P11597
assay.summary: Compound was evaluated for inhibitory activity against cholesteryl ester transfer protein, reported from fungus
Set-up: species or system Fungi
assay.readout: IC50
Just so you know, I need the unit written after the number.

Query: Look up IC50: CCCCC(C)C1CC(=O)N[C@@H](Cc2ccccc2)C(=O)N[C@@H](C)C(=O)N[C@@H](CC(C)C)C(=O)O1 (stereo partly specified)
Response: 40 µM
